# Experimental protocol: State (liquid or solid) at standard temperature by visual observation
# Format: physicochemical
Parameter measured: State at standard temperature (about 20° C.)

CCCCC/C=C\CC(O)CCCCCCCCC(=O)O (stereo not drawn) [compound 2, 10-Hydroxy-cis-12-octadecenoic Acid, reference compound] ... solid
CCCCC/C=C\C/C=C\CCCCCCCC(=O)OC(COC(=O)CCCCCCCCC(O)C/C=C\CCCCC)COC(=O)CCCCCCCCC(O)C/C=C\CCCCC (stereo not shown) ... liquid
CCCCC/C=C\C/C=C\CCCCCCCC(=O)OCC(COC(=O)CCCCCCC/C=C\C/C=C\CCCCC)OC(=O)CCCCCCC/C=C\C/C=C\CCCCC [compound 1, Trilinolein, reference compound] ... liquid
CCCCC/C=C\C/C=C\CCCCCCCC(=O)OCC(COC(=O)CCCCCCCCC(O)C/C=C\CCCCC)OC(=O)CCCCCCC/C=C\C/C=C\CCCCC (stereo not shown) ... liquid

Numbers sourced from patent US10287234B2.
